experiment: Solubility at pH 3.1
Format: physicochemical
condition-label: buffer
Parameter: solubility. Scope: all listed entries.

{"compound-smiles": "CO/C(C)=C1/NC(=O)[C@H]([C@@H](C)O)NC(=O)c2csc(n2)-c2cc(O)c(-c3nc(C(=O)N[C@@H](C)C(=O)NCCO)cs3)nc2-c2csc(n2)[C@@H]2COC(=O)c3c4c5c(cccc5n3O)COC(=O)[C@@H](O[C@H]3C[C@](C)(O)[C@H](N(C)C)[C@H](C)O3)[C@@H](OC4)[C@H](NC(=O)c3csc1n3)c1nc(cs1)C(=O)N2", "unit-string": "µg/mL", "solubility": 1300}
{"compound-smiles": "CO/C(C)=C1/NC(=O)[C@H]([C@@H](C)O)NC(=O)c2csc(n2)-c2cc(O)c(-c3nc(C(=O)N[C@@H](C)C(=O)N4CCC[C@H]4CO)cs3)nc2-c2csc(n2)[C@@H]2COC(=O)c3c4c5c(cccc5n3O)COC(=O)[C@@H](O[C@H]3C[C@](C)(O)[C@H](N(C)C)[C@H](C)O3)[C@@H](OC4)[C@H](NC(=O)c3csc1n3)c1nc(cs1)C(=O)N2", "unit-string": "µg/mL", "solubility": 2200}
{"compound-smiles": "CO/C(C)=C1/NC(=O)[C@H]([C@@H](C)O)NC(=O)c2csc(n2)-c2cc(O)c(-c3nc(C(=O)N[C@@H](C)C(=O)NCc4ccc(O)cc4)cs3)nc2-c2csc(n2)[C@@H]2COC(=O)c3c4c5c(cccc5n3O)COC(=O)[C@@H](O[C@H]3C[C@](C)(O)[C@H](N(C)C)[C@H](C)O3)[C@@H](OC4)[C@H](NC(=O)c3csc1n3)c1nc(cs1)C(=O)N2", "unit-string": "µg/mL", "solubility": 480}
